Experiment: Acute toxicity in rats
Set-up: species or system rat (Jcl: Wistar, 5 weeks)
Conditions: rat, in vivo, sc, s. c., male
ENDPOINT_NAME: LD50

May I ask what LD50 has been recorded for Cl.O=S(=O)(c1cccc2cnccc12)N1CCCNCC1 ?
123 mg/kg

---

Assay: Acute toxicity in rats
Design: species or system rat (Jcl: Wistar, 5 weeks)
Details: rat, in vivo, iv, i. v., female
ENDPOINT_NAME: LD50 (mg/kg)
Write the value in mg/kg as a bare number.

// query LD50 value for entry Cl.O=S(=O)(c1cccc2cnccc12)N1CCCNCC1
63.9

---

Assay: Acute toxicity in rats
Parameters: species or system rat (Jcl: Wistar, 5 weeks)
Conditions: rat, in vivo, sc, s. c., female
ENDPOINT_NAME: LD50

Look up LD50: Cl.O=S(=O)(c1cccc2cnccc12)N1CCCNCC1
128 mg/kg
